Molecular target: Torsin-1A-interacting protein 2 (Homo sapiens)
Assay: small molecules binding lysate-expressed LULL1 – cell lysate, human LULL1 lysate, 635/667 nm fluorescence, primary screen (AID 1092);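 note: probe is lysate of COS7 cells overexpressing human LULL1; score merges per-feature 667 nm fluorescence with signal-to-noise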
Details: small-molecule microarray, hLULL1 lysate binding, 635 nm fluorescence; higher = more signal
The following compounds are listed with their measured composite z-score values.

Record Smiles: COCCOC(=O)N1C(=O)[C@@]2(c3cc(C#Cc4ccc(OC)cc4)ccc31)[C@H](C(=O)N1CCc3cc(OC)c(OC)cc3C1)[C@H]1C(=O)O[C@H](c3ccccc3)[C@H](c3ccccc3)N1[C@@H]2c1ccc(OCCO)cc1
Study Target: Torsin-1A-interacting protein 2 (Homo sapiens)
composite z-score: 1.32
--
Record Smiles: O=C(O)[C@@]1(Cc2ccccc2)COC(c2ccc(OCCCO)cc2)=N1
Study Target: Torsin-1A-interacting protein 2 (Homo sapiens)
composite z-score: 2.64
--
Record Smiles: COC(=O)[C@@]1(Cc2ccc(OC)cc2)[C@H]2c3cc(C(=O)N4CCCC4)n(CCc4ccc(O)c(OC)c4)c3C[C@H]2CN1C(=O)c1ccccc1
Study Target: Torsin-1A-interacting protein 2 (Homo sapiens)
composite z-score: 2.6

====

Assay: growth modulation of vineyard yeast isolate – strain RM11-1a, OD600, basal, 24 h, primary screen (AID 1177);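 note: cultures grown under basal conditions with no added stressor; test concentration not given here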
Conditions: S. cerevisiae RM11-1a growth, OD600, 24 h; higher = more signal, called active from +8 up or from −8 down
The following molecules are listed with their measured z-score values.

Molecule: C=CCC(OC(C)=O)[C@@H]1[C@@H](N(Cc2ccc(-c3ccccc3)cc2)C(=O)c2cccc3ccccc23)c2cc(OCCCO)ccc2N1C(=O)c1ccc2ccccc2n1 (stereo not given in full)
z-score: -0.909
--
Molecule: [N-]=[N+]=NCc1ccccc1[C@H]1OC(c2ccc(OCCCO)cc2)=N[C@@]1(Cc1ccccc1N=[N+]=[N-])C(=O)NCCN1CCOCC1
z-score: 1.41
--
Molecule: COC(=O)[C@@]1(Cc2ccccc2)[C@H]2c3cc(C(=O)N4CCCC4)n(CCO)c3C[C@H]2CN1C(=O)c1ccccc1
z-score: -0.483
--
Molecule: CN(C)CCCN1C(=O)[C@@]2(Cc3ccccc31)c1ccccc1C(=O)N(Cc1ccccc1)[C@H]2c1ccc(CO)cc1
z-score: -0.549
--
Molecule: C[N+](C)(C)CCCC[C@@H]1NC(=O)[C@H]2C[C@@H](C(=O)NCCCCCCN)[C@@H](c3cccc(OCCO)c3)N2C1=O
z-score: -0.0241
--
Molecule: CC1CC/C=C\[C@H]2OC34C=CCN(c5ccc(Cl)cc5)C(=O)[C@H]3N(C(CO)C(C)C)C(=O)[C@]4(C)C2C(=O)O1 (stereo not given in full)
z-score: -0.245
--
Molecule: CCCCC(=C=CC[C@H](O)c1ccccc1OCCO)C[C@H](O)c1ccccn1
z-score: 0.0401
--
Molecule: CC(C)CCC[C@@H](C)[C@H]1CC[C@@]2(C)C3=C(CC[C@]12C)[C@@]1(C)CC[C@H](OC(=O)c2ccc(N)cc2)C(C)(C)C1CC3 (stereo not given in full)
z-score: -2.11
--
Molecule: COC(=O)[C@@]1(Cc2ccc(F)cc2)[C@H]2c3cc(C(=O)N4CCCC4)n(Cc4ccccc4)c3C[C@H]2CN1C(=O)c1ccccc1
z-score: 0.669
--
Molecule: C#CCNS(=O)(=O)N(C)C
z-score: 0.648
--
Molecule: COCCOC(=O)N1C(=O)[C@@]2(c3cc(C#Cc4ccc(OC)cc4)ccc31)[C@H](c1ccc(OCCO)cc1)N1[C@H](c3ccccc3)[C@H](c3ccccc3)OC(=O)[C@H]1[C@@H]2C(N)=O
z-score: 2.82
--
Molecule: COCC(=C=CC[C@@H](O)c1ccccc1OCCO)C[C@@H](O)c1ccccn1
z-score: -0.572
--
Molecule: COc1ccc([Si](C)(C)[C@@H]2[C@@H](CCO)O[C@]3(C(=O)N(Cc4ccccc4)c4ccc(N5CCCCC5=O)cc43)[C@H]2C)cc1
z-score: 3.49
--
Molecule: COCCCNC(=O)[C@@]1(Cc2ccccc2N=[N+]=[N-])N=C(c2ccc(OCCCO)cc2)O[C@H]1c1ccccc1CN=[N+]=[N-]
z-score: 0.154
--
Molecule: CC(C)[Si](C#C[Si](C(C)C)(C(C)C)C(C)C)(O[C@H](C)c1cn(Cc2cccc(Cl)c2)nn1)C(C)C
z-score: 0.0575
